The reported numbers originate from the RNAGym collection of RNA variant scans (doi:10.7554/elife.80360).

List of self-cleavage values.
B1: CPEB3 Ribozyme (parent)
chain: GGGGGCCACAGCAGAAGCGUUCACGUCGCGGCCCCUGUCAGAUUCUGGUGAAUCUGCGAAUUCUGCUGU

Variants of: B1
Assay: self-cleavage, relative activity (ratio to wild type); higher = more cleavage; co-transcriptional

sequenceData	self-cleavage
GGGGGCCACAGAAGAAGCGUUCACGUCGCGGCCCCUGUCAGAUUGUGGUGAAUCUGCGAAUUCUGCUGU [C12A C45G]	0.614
GGGGGCCACAGCAGAAGCUUUCACGUCGCGGCCCCUGUCAGAUUCUGGUGAAUAUGCGAAUUCUGCUGU [G19U C54A]	0.182
GGGGGCCACAGCAGAAGCGUUCCCGUCGCGGGCCCUGUCAGAUUCUGGUGAAUCUGCGAAUUCUGCUGU [A23C C32G]	0.329
GGGGGUCACAGCAGAAGCGUUCACGUCGCGGCCCCUGUCAGAUUCUGGUGAAUCGGCGAAUUCUGCUGU [C6U U55G]	0.888
GGGGGCCACAGCAAAAGCGUUCACGUCGCGGCCCCUGACAGAUUCUGGUGAAUCUGCGAAUUCUGCUGU [G14A U38A]	0.478
GGGGGCCACAGCAGACGCGUUCACGUCGCGGCCCCUCUCAGAUUCUGGUGAAUCUGCGAAUUCUGCUGU [A16C G37C]	0.176
GGGGGCCACAGCAGAAGCGUUCACGUCGCGACCCCUGUCAGAUUCUUGUGAAUCUGCGAAUUCUGCUGU [G31A G47U]	0.915
UGGGGCCACAGCAGAAGCGUUCACGUCGCGGCCCCUGUCAGAUUCUGGUUAAUCUGCGAAUUCUGCUGU [G1U G50U]	0.056
GGGGGCCACAGCAGAAGCGUUCACGUCGCGGCCCCUGUCUGAUUCUGGUGAAUCUGCGAAUGCUGCUGU [A40U U62G]	0.426
GGGGGCCACAGCAGAAGCGUUCACGUCGCGGCCCCUGUCAGCUUCUGGUGAAACUGCGAAUUCUGCUGU [A42C U53A]	1.03
GGGGGCCACAGCAGAAGCGUUCACGUCGCAGCCCCUGUCAGAUUCUGGUGACUCUGCGAAUUCUGCUGU [G30A A52C]	0.739
GGGGGUCACAGCAGAAACGUUCACGUCGCGGCCCCUGUCAGAUUCUGGUGAAUCUGCGAAUUCUGCUGU [C6U G17A]	0.315
GGGGGCAACAGCAGAAGCGUUCACGUCGCGGCCCCUGUCACAUUCUGGUGAAUCUGCGAAUUCUGCUGU [C7A G41C]	0.146
GGGGGCCACAUCACAAGCGUUCACGUCGCGGCCCCUGUCAGAUUCUGGUGAAUCUGCGAAUUCUGCUGU [G11U G14C]	0.161
CGGGGCCACAGCAGAAGCGUUCACGUCGCGGCCCCUGUCAGAUUUUGGUGAAUCUGCGAAUUCUGCUGU [G1C C45U]	0.24
GGGGGCCACAGCAGAAGCGGUCACGUCACGGCCCCUGUCAGAUUCUGGUGAAUCUGCGAAUUCUGCUGU [U20G G28A]	0.186
GGGGGCCACAGCAGAAGCGUUCACGUCGCGGCCCCUGUCAGAUUCUGGUAAAUCUGCGACUUCUGCUGU [G50A A60C]	0.369
GGGGGCCACAGCAGAAGCGUUGACAUCGCGGCCCCUGUCAGAUUCUGGUGAAUCUGCGAAUUCUGCUGU [C22G G25A]	0.177
GGGGGCCACAGCAGAAGCGUUCACGUCGCGGCCCCUGUCAGAAUCUGGUAAAUCUGCGAAUUCUGCUGU [U43A G50A]	0.962
GGGGCCCACAGAAGAAGCGUUCACGUCGCGGCCCCUGUCAGAUUCUGGUGAAUCUGCGAAUUCUGCUGU [G5C C12A]	0.141
GGGGGCCACAGCAGAAGCGUUCGCGUCGCGCCCCCUGUCAGAUUCUGGUGAAUCUGCGAAUUCUGCUGU [A23G G31C]	0.237
GGGGGCCACAGCAGAAGCGUUCACGUCGCGGCCCCUGUCGGAUUCUGGUGAAUCUUCGAAUUCUGCUGU [A40G G56U]	0.895
